Measured values drawn from patent US20050239656A1 for this set.

tested on: rice (var. Nihonbare); assay: Test Example 3: paddy pot test, transplanted rice; format: in vivo, Oryza sativa L.; details: active ingredient 500 g/ha, applied 4th day after transplantation, visually observed 21st day after application, 0 = non-treated, 100 = complete kill
Measured Growth controlling degree (%) Rice by item
measure: Growth controlling degree (%) Rice

1) CC(C)C(c1cnccc1C(F)(F)F)N(C)C(=O)Cc1cccc2ccccc12 (stereo not shown); 20
2) CC(C)C(c1cnccc1C(F)(F)F)N(C)C(=O)C=Cc1cccc2ccccc12 (stereo not shown); 0
3) CC(C)C(c1cnccc1C(F)(F)F)N(C)C(=O)Cc1cccc(F)c1 (stereo not shown); 40
4) CC(C)C(c1cnccc1C(F)(F)F)N(C)C(=O)Cc1ccc(F)cc1 (stereo not shown); 40
5) CC(C)C(c1cnccc1C(F)(F)F)N(C)C(=O)CC1C=CCC1 (stereo not shown); 10
6) C=CC(=O)N(C)C(c1cnccc1C(F)(F)F)C(C)C (stereo not shown); 95
7) CC(C(=O)N(C)C(c1cnccc1C(F)(F)F)C(C)C)c1ccccc1 (stereo not shown); 30
8) CC(C)C(c1cnccc1C(F)(F)F)N(C)C(=O)C=Cc1cccnc1 (stereo not shown); 10
9) CC(C)C(NC(=O)c1ccccc1)c1cnccc1C(F)(F)F (racemic); 20
10) CN(C(=O)Cc1cccs1)C(c1cnccc1C(F)(F)F)c1cccc2ccccc12 (stereo not shown); 10
11) CCN(C(=O)Cc1ccccc1)C(c1cnccc1C(F)(F)F)C(C)C (stereo not shown); 40
12) CC(C)C(c1cnccc1C(F)(F)F)N(C)C(=O)Cc1ccc(Cl)cc1 (stereo not shown); 30
13) CCCC(=O)N(C)C(c1cnccc1C(F)(F)F)c1cccc2ccccc12 (stereo not shown); 10
14) CC(C)C(c1cnccc1C(F)(F)F)N(C)C(=O)Cc1c(F)cccc1F (stereo not shown); 30
15) CCOC(=O)N(C)C(c1cnccc1C(F)(F)F)c1cccc2ccccc12 (stereo not shown); 20
16) CC(C)C(c1cnccc1C(F)(F)F)N(C)C(=O)C=Cc1cccc(Br)c1 (stereo not shown); 10
17) CCCC(=O)NC(c1cnccc1C(F)(F)F)c1cccc2ccccc12 (stereo not shown); 10
18) CCC(=O)N(C)C(c1cnccc1C(F)(F)F)c1cccc2ccccc12 (stereo not shown); 35
19) Cc1cc(F)ccc1CC(=O)N(C)C(c1cnccc1C(F)(F)F)C(C)C (racemic); 10
20) CC(C)C(c1cnccc1C(F)(F)F)N(C)S(=O)(=O)C=Cc1ccccc1 (racemic); 10
21) CCC(=O)NC(c1cnccc1C(F)(F)F)c1cccc2ccccc12 (stereo not shown); 30
22) CC(C)C(c1cnccc1C(F)(F)F)N(C)C(=O)C=Cc1ccc2ccccc2c1 (stereo not shown); 0
23) COC(=O)NC(c1cnccc1C(F)(F)F)c1cccc2ccccc12 (stereo not shown); 30
24) COc1ccc(C=CC(=O)N(C)C(c2cnccc2C(F)(F)F)C(C)C)cc1 (stereo not shown); 0
25) CC(C)C(c1cnccc1C(F)(F)F)N(C)C(=O)C=Cc1ccc(C(F)(F)F)cc1 (stereo not shown); 10
26) CC=CC(=O)N(C)C(c1cnccc1C(F)(F)F)C(C)C (stereo not shown); 30
27) CC(C)C(c1cnccc1C(F)(F)F)N(C)C(=O)COc1ccccc1 (stereo not shown); 0
28) CC(C)C(c1cnccc1C(F)(F)F)N(C)C(=O)Cc1ccc2ccccc2c1 (stereo not shown); 35
29) CC(Oc1ccccc1)C(=O)N(C)C(c1cnccc1C(F)(F)F)C(C)C (stereo not shown); 20
30) CC(C)C(c1cnccc1C(F)(F)F)N(C)C(=O)Cc1ccc(Cl)cc1Cl (stereo not shown); 10
31) CC(C)C(c1cnccc1C(F)(F)F)N(C)C(=O)N(C)c1ccccc1 (stereo not shown); 60
